Would you kindly list growth for each of these molecules?
Tested on: KM12 colon
Assay: NCI-60 one-dose screen, 48 h (100 = growth as untreated, 0 = no growth, -100 = all killed)
Details: 10 µM
The panel holds about 83,000 compounds, 20% with a hit somewhere; the sample as a whole holds those more often.
Numeric only. Scale: %

Problem: Sample "N#Cc1c(-n2c(Br)c(Br)c3cc(Br)ccc32)[nH]c2c(Br)cc(Br)cc12" — what was its growth?
Solution: -19.4

Problem: Sample CC(=O)O[C@@H]1[C@@H]2O[C@H]2[C@@](C)(O)C(=O)[C@@H](C)C/C=C/[C@H]2[C@@H]3O[C@]3(C)[C@@H](C)C3[C@H](Cc4ccccc4)NC(=O)[C@@]312 (some centres undefined) — what was its growth?
Solution: 66.6

Problem: Sample "COc1cc2c(cc1OC)[C@@H]1N(CC2)C(=O)c2ccccc2[C@@]1(C)C(=O)O" — what was its growth?
Solution: 113

Problem: Sample "COC(=O)[C@H]1[C@@H](O)[C@@]2(O)c3c(OC)cc(OC)cc3O[C@@]2(c2ccc(OC)cc2)[C@@H]1c1ccccc1" — what was its growth?
Solution: 3.23

Problem: Sample COC1[C@@H]2C[C@H]3C(C)(C)O[C@@](C/C=C(/C)C(=O)O)(C2=O)[C@]32Oc3c(CC=C(C)C)c4c(c(O)c3C(=O)[C@H]12)C=CC(C)(C)O4 (some centres undefined) — what was its growth?
Solution: -84.3

Problem: Sample CCC(C)[C@H]1C(=O)O[C@H](C(C)C)C(=O)N(C)[C@@H](C(C)C)C(=O)O[C@H](C(C)C)C(=O)N(C)[C@@H](C(C)C)C(=O)O[C@H](C(C)C)C(=O)N1C (some centres undefined) — what was its growth?
Solution: 16.4

Problem: Sample "CC(C)=CCc1c2c(c(O)c3c1O[C@]14C(=C[C@@H]5C[C@H]1C(C)(C)O[C@@]4(C/C=C(/C)C(=O)O)C5=O)C3=O)C=CC(C)(C)O2" — what was its growth?
Solution: -73.4

Problem: Sample "N#Cc1nc(-c2ccccc2)oc1N1CCC(S(=O)(=O)F)CC1" — what was its growth?
Solution: 97.1

Problem: Sample "CC1=C2C(=O)[C@](C)(CO)C=C2C(=O)[C@](C)(O)C12CC2" — what was its growth?
Solution: 31.9

* * *

Test system: SK-MEL-28 melanoma
Assay: NCI-60 one-dose screen, 48 h (100 = growth as untreated, 0 = no growth, -100 = all killed)
Conditions: 10 µM
The panel holds about 83,000 compounds, 20% with a hit somewhere; the sample as a whole holds those more often.
property_label: growth (%)
Numeric only. Scale: %

Problem: Sample "CC1=C[C@H]2O[C@@H]3C[C@@H](O)[C@](C)([C@@]2(C)CC1)[C@@]31CO1" — what was its growth?
Solution: 27.1

Problem: Sample "COC(=O)[C@H]1[C@@H](O)[C@@]2(O)c3c(OC)cc(OC)cc3O[C@@]2(c2ccc(OC)cc2)[C@@H]1c1ccccc1" — what was its growth?
Solution: -19.2

Problem: Sample "COc1cc(OC)c(S(=O)(=O)N(CCCl)CCCl)cc1C(=O)/C=C/c1ccc(Cl)cc1" — what was its growth?
Solution: 92.3

Problem: Sample "C[C@@H]1CCC/C=C/[C@H]2C[C@@H](O)C[C@@H]2[C@@H](O)/C=C/C(=O)O1" — what was its growth?
Solution: 18.3

Problem: Sample "CC1=C2C(=C[C@@](C)(COS(C)(=O)=O)[C@@H]2O)C(=O)[C@](C)(O)C12CC2" — what was its growth?
Solution: -28.4

Problem: Sample "CC1=C[C@H]2O[C@@H]3C[C@H]4OC(=O)/C=C\C=C\[C@H]([C@@H](C)O)OCC/C(C)=C/C(=O)OC[C@@]2(CC1)[C@]4(C)[C@]31CO1" — what was its growth?
Solution: -38.6

Problem: Sample CC(=O)O[C@@H]1[C@@H]2O[C@H]2[C@@](C)(O)C(=O)[C@@H](C)C/C=C/[C@H]2[C@@H]3O[C@]3(C)[C@@H](C)C3[C@H](Cc4ccccc4)NC(=O)[C@@]312 (stereo partly specified) — what was its growth?
Solution: 71

Problem: Sample COC1[C@@H]2C[C@H]3C(C)(C)O[C@@](C/C=C(/C)C(=O)O)(C2=O)[C@]32Oc3c(CC=C(C)C)c4c(c(O)c3C(=O)[C@H]12)C=CC(C)(C)O4 (stereo partly specified) — what was its growth?
Solution: -61.4

Problem: Sample "CC(=O)O[C@@H]1C[C@H]2O[C@@H]3C=C(C)CC[C@]3(C)[C@]1(C)[C@]21CO1" — what was its growth?
Solution: -1.27

Problem: Sample "CC1=C(CCC=NNC(N)=O)C2=C(C)C3(CC3)[C@@](C)(O)C(=O)C2=C1" — what was its growth?
Solution: -48.8

Problem: Sample C=C1[C@@H](C)C2[C@H](Cc3ccccc3)NC(=O)[C@]23[C@H](OC(C)=O)/C=C/[C@@](C)(O)C(=O)[C@@H](C)C/C=C/[C@H]3[C@@H]1O (stereo partly specified) — what was its growth?
Solution: 87.1

Problem: Sample "Cc1ccc(CNc2nc3ccc(OC/C(=C/F)CN)cc3o2)cn1" — what was its growth?
Solution: 107

Problem: Sample "CC1=C[C@H]2O[C@@H]3C[C@H]4OC(=O)/C=C\C=C\[C@H]([C@@H](C)O)OCC[C@@H](C)[C@H](O)C(=O)OC[C@@]2(CC1)[C@]4(C)[C@]31CO1" — what was its growth?
Solution: -49.1

Problem: Sample "N#Cc1nc(-c2ccccc2)oc1N1CCC(S(=O)(=O)F)CC1" — what was its growth?
Solution: 104

Problem: Sample "CN(CCF)/N=N/c1nc[nH]c1C(N)=O" — what was its growth?
Solution: 49.3

Problem: Sample "O=C(CCCc1ccc(N(CCCl)CCCl)cc1)OCc1ccccc1" — what was its growth?
Solution: 101

Problem: Sample "CC1=C2C(=C[C@@](C)(COC(=O)c3ccc(S(=O)(=O)F)cc3)[C@@H]2O)C(=O)[C@](C)(O)C12CC2" — what was its growth?
Solution: -66.3

Problem: Sample "CC1=C(CN(O)C(N)=O)C2=C(C)C3(CC3)[C@](C)(O)C(=O)C2=C1" — what was its growth?
Solution: -28.4

Problem: Sample "N#Cc1c(-n2c(Br)c(Br)c3cc(Br)ccc32)[nH]c2c(Br)cc(Br)cc12" — what was its growth?
Solution: 5.46

Problem: Sample CN1C(=O)[C@]23SSC1(C)C(=O)N2[C@H]1Nc2ccccc2C1([C@@]12c4ccccc4N[C@@H]1N1C(=O)C4(C)SS[C@]1(C(=O)N4C)[C@H]2O)[C@@H]3O (stereo partly specified) — what was its growth?
Solution: -96.5

Problem: Sample C[C@@H]1C[C@H]2C(=O)O[C@@H](C)C(NC(=O)[C@H](Cc3cc(F)cc(F)c3)NC(=O)Nc3ccc(OS(=O)(=O)F)cc3)C(=O)N3CCC[C@H]3C(=O)N3CCO[C@H](C)[C@H]3C(=O)N[C@@H](CO)C(=O)N2C1 (stereo partly specified) — what was its growth?
Solution: 40.5
